target: TRPML3 (Homo sapiens); construct: expressed in transfected cells; test: Fluorescent TRPML3 assay (performed as for TRPML1, substituting the TRPML3 subtype); assay type: cell-based; conditions: fluorescent calcium assay
Sequence (Q8TDD5 whole entry): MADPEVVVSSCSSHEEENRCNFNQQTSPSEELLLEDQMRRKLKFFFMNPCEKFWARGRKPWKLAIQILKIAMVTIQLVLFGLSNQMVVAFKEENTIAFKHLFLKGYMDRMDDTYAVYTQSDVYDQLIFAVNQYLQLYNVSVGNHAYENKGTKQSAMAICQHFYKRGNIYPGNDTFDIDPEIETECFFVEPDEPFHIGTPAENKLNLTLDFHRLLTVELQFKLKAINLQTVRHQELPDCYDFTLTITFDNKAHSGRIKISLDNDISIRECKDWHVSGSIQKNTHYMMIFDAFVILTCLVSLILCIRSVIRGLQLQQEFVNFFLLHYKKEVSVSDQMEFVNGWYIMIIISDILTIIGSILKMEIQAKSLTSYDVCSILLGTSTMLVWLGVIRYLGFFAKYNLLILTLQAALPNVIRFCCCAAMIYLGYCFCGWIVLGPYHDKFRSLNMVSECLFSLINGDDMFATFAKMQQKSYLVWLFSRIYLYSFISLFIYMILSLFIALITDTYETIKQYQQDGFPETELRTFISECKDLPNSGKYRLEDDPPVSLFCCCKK
Known EC50 of a selection of compounds

Some entries whose results are on file:
>>> observed_value("C[C@H]1CN(C(=O)OC(C)(C)C)CCN1c1ncnc2c1c(-c1ccccc1F)cn2-c1cc(C#N)ccn1")
"< 100 nM"
>>> observed_value("C[C@@H]1CN(c2ncnc3c2c(N2CCC2)cn3-c2cc(C#N)ccn2)CCN1C(=O)OC(C)(C)C")
"< 100 nM"

Need EC50 of "C[C@H]1CN(C(=O)OCC(F)(F)F)CCN1c1ncnc2c1c(-c1ccccn1)cn2-c1cc(C#N)ccn1" , thanks.
100 to 500 nM

Need EC50 of "C[C@H]1CN(C(=O)OC(C)(C)C)CCN1c1ncnc2c1c(N1CCCC1)cn2C1CCCCC1" , thanks.
< 100 nM

Need EC50 of "C[C@H]1CN(C(=O)OC(C)(C)C)CCN1c1ncnc2c1c(C1CC1)cn2-c1cc(C#N)ccn1" , thanks.
< 100 nM

Need EC50 of "C[C@H]1CN(C(=O)OC(C)(C)C)CCN1c1ncnc2c1c(C1COC1)cn2-c1cc(F)cc(F)c1" , thanks.
100 to 500 nM

Need EC50 of "CCN(CC)c1cn(-c2cccc(Cl)c2)c2ncnc(N3CCN(C(=O)OC(C)(C)C)[C@H](C)C3)c12" , thanks.
< 100 nM
